Sourced from patent US20200216495A1

# IC50, Tau40 assay (ThT) listing for each entry below
Target entity: Tau40 P301L protein (human)
Protocol: cell-based or functional assay
Square brackets hold non-standard residues; d marks the D form. Ends that are not written are not given here.
Metric: IC50, Tau40 assay (ThT) (µM)

[dW][dW][dL][dK][dL][dR][dW][dW] [wwlklrww]; 7.64
[dY][dR][dI][dR][dI][dN][dH][dL] [yririnhl]; 6.5
[dW][dA][dL][dR][dI][dH][dW] [walrihw]; 3.23
[dR][dL][dR][dI][dH][dW] [rlrihw]; 6.87
[dI][dR][dI][dH][dY][dH][dL][dK] [irihyhlk]; 7.39
[dT][dW][dR][dL][dV][dL] [twrlvl]; 7.46
[dL][dK][dI][dR][dR][dH][dY][dH] [lkirrhyh]; 3.21
[dW][dR][dL][dR][dI][dW][dW] [wrlriww]; 3.06
[dF][dH][dL][dH][dL][dK][dH][dW] [fhlhlkhw]; 3.74
[dK][dI][dR][dI][dH][dY][dH][dL] [kirihyhl]; 4.59
[dR][dI][dH][dY][dH][dI][dK][dL] [rihyhikl]; 3.59
[dW][dH][dV][dR][dI][dR][dH][dV] [whvrirhv]; 5.03
[dW][dE][dV][dQ][dV][dE][dW] [wevqvew]; 11.7
[dW][dR][dL][dD][dV][dR][dW] [wrldvrw]; 3.13
